Every entry's value here was drawn from patent US20230372434A1.

substances and their reported Mean (SEM) Collagen Deposition Score in Lung Tissue
- System: established lung fibrosis induced by bleomycin in male C57BL/6 mice
- protocolDescription: Therapeutic mouse model of idiopathic pulmonary fibrosis, peptides alone (Example 2)
- Type: in vivo
- conditionLabel: Day 21, 15 mg/kg/day IP
Square brackets hold non-standard residues; d marks the D form. Primed or numbered codes have the meaning given here. Ends that are not written are not given here. PEG12′ = not defined here; Nle = CCCC[C@H](N)C(=O)O

Reference set (2 entries):
substance: RVIRMCLGVGLLGDLAGK{PEG12} (RVIRMCLGVGLLGDLAGK(PEG12′); also: homodimer, disulfide at Cys6) [SEQ ID NO: 28]
reading: 2.00 (0.26)

substance: RVIRACLGVGLLGDLAGK{PEG12} (RVIRACLGVGLLGDLAGK(PEG12′); also: homodimer, disulfide at Cys6) [SEQ ID NO: 36]
reading: 2.89 (0.35)

QUERY: Can you share its Mean (SEM) Collagen Deposition Score in Lung Tissue? I mean this substance: RVIR(Nle)CLGVGLLGDL(dA)GK{PEG12} (RVIR[Nle]CLGVGLLGDL[dA]GK(PEG12′); also: homodimer, disulfide at Cys6) [SEQ ID NO: 32]
RESULT: 2.10 (0.35)

QUERY: // returns reported Mean (SEM) Collagen Deposition Score in Lung Tissue for input RVIRACLGVGLLGDL(dA)GK{PEG12} (RVIRACLGVGLLGDL[dA]GK(PEG12′); also: homodimer) [SEQ ID NO: 30]
RESULT: 1.80 (0.33)

====

- System: established lung fibrosis induced by bleomycin in male C57BL/6 mice
- protocolDescription: Therapeutic mouse model of idiopathic pulmonary fibrosis, peptides alone (Example 2)
- Assay type: in vivo
- conditionLabel: Day 21, 15 mg/kg/day IP
Square brackets hold non-standard residues; d marks the D form. Primed or numbered codes have the meaning given here. Ends that are not written are not given here. PEG12′ = not defined here; Nle = CCCC[C@H](N)C(=O)O
Below, each entry is listed alongside its reported Mean (SEM) Number of Lymphocytes in BALF.

substance: RVIR(Nle)CLGVGLLGDL(dA)GK{PEG12} (RVIR[Nle]CLGVGLLGDL[dA]GK(PEG12′); also: homodimer, disulfide at Cys6) [SEQ ID NO: 32]
Mean (SEM) Number of Lymphocytes in BALF: 1270 (584)
--
substance: RVIRACLGVGLLGDLAGK{PEG12} (RVIRACLGVGLLGDLAGK(PEG12′); also: homodimer, disulfide at Cys6) [SEQ ID NO: 36]
Mean (SEM) Number of Lymphocytes in BALF: 884 (442)
--
substance: RVIRMCLGVGLLGDLAGK{PEG12} (RVIRMCLGVGLLGDLAGK(PEG12′); also: homodimer, disulfide at Cys6) [SEQ ID NO: 28]
Mean (SEM) Number of Lymphocytes in BALF: 1210 (233)

QUERY: Query: Mean (SEM) Number of Lymphocytes in BALF; subject: RVIRACLGVGLLGDL(dA)GK{PEG12} (RVIRACLGVGLLGDL[dA]GK(PEG12′); also: homodimer) [SEQ ID NO: 30]
RESULT: 896 (254)

====

Below: a set of entries, each annotated with reported Mean (SEM) Normalized Lung Weight.
- Tested on: established lung fibrosis induced by bleomycin in male C57BL/6 mice
- protocolDescription: Therapeutic mouse model of idiopathic pulmonary fibrosis, peptides alone (Example 2)
- Assay type: in vivo
- conditionLabel: Day 21, 15 mg/kg/day IP
Square brackets hold non-standard residues; d marks the D form. Primed or numbered codes have the meaning given here. Ends that are not written are not given here. PEG12′ = not defined here; Nle = CCCC[C@H](N)C(=O)O

substance: RVIRACLGVGLLGDL(dA)GK{PEG12} (RVIRACLGVGLLGDL[dA]GK(PEG12′); also: homodimer) [SEQ ID NO: 30]
Mean (SEM) Normalized Lung Weight: 1.22 (0.11)

substance: RVIRACLGVGLLGDLAGK{PEG12} (RVIRACLGVGLLGDLAGK(PEG12′); also: homodimer, disulfide at Cys6) [SEQ ID NO: 36]
Mean (SEM) Normalized Lung Weight: 1.32 (0.12)

substance: RVIRMCLGVGLLGDLAGK{PEG12} (RVIRMCLGVGLLGDLAGK(PEG12′); also: homodimer, disulfide at Cys6) [SEQ ID NO: 28]
Mean (SEM) Normalized Lung Weight: 1.27 (0.05)

QUERY: Returns the measured Mean (SEM) Normalized Lung Weight for the input substance. Input: RVIR(Nle)CLGVGLLGDL(dA)GK{PEG12} (RVIR[Nle]CLGVGLLGDL[dA]GK(PEG12′); also: homodimer, disulfide at Cys6) [SEQ ID NO: 32]
RESULT: 1.20 (0.05)
